Test system: Periplaneta americana
PROTOCOL SUMMARY: Insecticidal activity against Periplaneta americana (American cockroach) assessed as killing compound injected into abdomen of cockroach after 24 hr in presence of 50 ug piperonyl butoxide oxidative metabolism inhibitor
Format: functional
Decision: MLD compared against 20 nmol; not below it gives 1.0, below it gives 0.0.

Completed entries (count: 4):
CN(Cc1ccc(Cl)nc1)/C(N)=N/C#N
0.0
CN(Cc1ccc(Cl)nc1)/C(=N/C#N)NCc1ccccc1
1.0
N#C/N=C1\SCCN1Cc1ccc(Cl)nc1
0.0
O=[N+]([O-])/N=C1\NCCN1Cc1ccc(Cl)nc1
0.0

Kindly review the next compound as well.
### Prompt Reported MLD at or above 20 nmol? "CN(C)/C(=N\C#N)N(C)Cc1ccc(Cl)nc1"
### Response 1.0

###

System: Periplaneta americana
PROTOCOL SUMMARY: Insecticidal activity against Periplaneta americana (American cockroach) assessed as killing compound injected into abdomen of cockroach after 24 hr
Assay type: functional
Below, each entry is listed alongside its reported MLD.
Answer format: numeric, nmol implied, no suffix.

Guide cases for MLD, answers given:
CN(Cc1ccc(Cl)nc1)/C(N)=N/C#N
22
N#C/N=C1\SCCN1Cc1ccc(Cl)nc1
21
CS/C(=N\C#N)N(C)Cc1ccc(Cl)nc1
160

### Prompt Please look up its MLD: "CN(Cc1ccc(Cl)nc1)/C(=N/C#N)NCc1ccccc1"
### Response 81

### Prompt Please look up its MLD: "CN/C(=N\C#N)N(C)Cc1ccc(Cl)nc1"
### Response 68

### Prompt Please look up its MLD: "CN(C)/C(=N\C#N)N(C)Cc1ccc(Cl)nc1"
### Response 320

### Prompt Please look up its MLD: "CCN/C(=N\C#N)N(C)Cc1ccc(Cl)nc1"
### Response 26

### Prompt Please look up its MLD: "O=[N+]([O-])/N=C1\NCCN1Cc1ccc(Cl)nc1"
### Response 1.1

###

PROTOCOL SUMMARY: Octanol-water partition coefficient, log P of the compound at 23 degC by shake flask method
Format: physicochemical
Below, each entry is listed alongside its reported logP.
The answer should be written as a number, with no unit following it.

Guide cases for logP, answers given:
CCN/C(=N\C#N)N(C)Cc1ccc(Cl)nc1
1.02
CN/C(=N\C#N)NCc1ccc(Cl)nc1
0.84
CN(C)/C(=N\C#N)N(C)Cc1ccc(Cl)nc1
0.66
CS/C(=N\C#N)NCc1ccc(Cl)nc1
1.27
CN/C(=N\C#N)N(C)Cc1ccc(Cl)nc1
0.78

### Prompt Please look up its logP: "N#C/N=C1\SCCN1Cc1ccc(Cl)nc1"
### Response 1.2

### Prompt Please look up its logP: "CN(C)/C(=N\C#N)NCc1ccc(Cl)nc1"
### Response 0.66

### Prompt Please look up its logP: "CS/C(=N\C#N)N(C)Cc1ccc(Cl)nc1"
### Response 1.4

### Prompt Please look up its logP: "CN(Cc1ccc(Cl)nc1)/C(N)=N/C#N"
### Response 0.71

### Prompt Please look up its logP: "O=[N+]([O-])/N=C1\NCCN1Cc1ccc(Cl)nc1"
### Response 0.6

### Prompt Please look up its logP: "CCN/C(=N\C#N)NCc1ccc(Cl)nc1"
### Response 0.86

### Prompt Please look up its logP: "CN(Cc1ccc(Cl)nc1)/C(=N/C#N)NCc1ccccc1"
### Response 1.32
